# target.desc: fms-like tyrosine kinase 3 receptor (FLT3) (Homo sapiens, UniProt P36888)
# Construct: SNAP-FLT3 (Lumi4-Tb labelled) in HEK293 cells; endogenous FLT3 in RS4-11 cells
# Sequence (P36888 27-993): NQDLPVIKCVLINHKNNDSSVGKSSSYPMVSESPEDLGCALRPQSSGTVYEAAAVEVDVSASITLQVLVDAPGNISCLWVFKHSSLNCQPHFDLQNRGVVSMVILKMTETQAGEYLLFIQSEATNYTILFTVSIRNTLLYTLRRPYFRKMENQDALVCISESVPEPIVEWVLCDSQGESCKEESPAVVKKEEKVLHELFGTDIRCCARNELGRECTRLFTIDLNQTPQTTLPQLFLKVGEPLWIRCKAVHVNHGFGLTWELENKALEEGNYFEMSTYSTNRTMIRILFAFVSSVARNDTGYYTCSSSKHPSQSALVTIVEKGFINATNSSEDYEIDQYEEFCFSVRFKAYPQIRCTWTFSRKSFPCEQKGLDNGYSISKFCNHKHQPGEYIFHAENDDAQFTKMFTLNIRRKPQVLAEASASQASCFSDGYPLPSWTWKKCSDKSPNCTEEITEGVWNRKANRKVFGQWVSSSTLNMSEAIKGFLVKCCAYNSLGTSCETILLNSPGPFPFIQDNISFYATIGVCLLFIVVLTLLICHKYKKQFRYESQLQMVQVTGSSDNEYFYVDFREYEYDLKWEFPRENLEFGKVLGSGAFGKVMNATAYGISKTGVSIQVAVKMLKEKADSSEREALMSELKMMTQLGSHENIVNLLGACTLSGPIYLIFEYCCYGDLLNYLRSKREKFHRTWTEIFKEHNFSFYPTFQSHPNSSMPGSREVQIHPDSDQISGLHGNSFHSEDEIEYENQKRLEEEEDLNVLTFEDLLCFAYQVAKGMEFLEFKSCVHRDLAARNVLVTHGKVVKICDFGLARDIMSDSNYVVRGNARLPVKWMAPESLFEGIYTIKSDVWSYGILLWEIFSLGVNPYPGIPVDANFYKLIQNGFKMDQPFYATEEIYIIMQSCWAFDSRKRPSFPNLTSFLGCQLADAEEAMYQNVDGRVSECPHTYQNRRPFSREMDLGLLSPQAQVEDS
# protocol.notes: trFRET inhibition of Red-FL binding to SNAP-FLT3 on HEK293 cells; FL-induced FLT3 phosphorylation in RS4-11 cells (IC50 […])
measured.endpoint: pIC50
To interpret pIC50, take it as minus log10 of a concentration measured in moles per litre.

The value of pIC50 measured for the compound O=C(Nc1cc(Cl)ccc1O)c1cccc(S(=O)(=O)N2CCCCC2)c1 turned out to be 4.96
